Record set: IC50 | JNK3 (Homo sapiens, UniProt P53779) | literature, multiple sources.

# SAMPLE_SMILES, IC50
data = [
    ("O=C(CN1C(=O)CCc2ccccc21)Nc1sccc1-c1ncn[nH]1", "100 to 10000 nM"),
    ("O=C(Cn1c(=O)ccc2cc(C(F)(F)F)ccc21)Nc1sc(Cl)cc1-c1ncn[nH]1", "100 to 10000 nM"),
    ("c1nn(CCN2CCOCC2)cc1-c1c[nH]c2ncc([C@H]3CC[C@H](N4CCOCC4)CC3)cc12", "417 nM"),
    ("CC(C)(C)OC(=O)Nc1cnc2[nH]cc(-c3cn[nH]c3)c2c1", "< 1000 nM"),
    ("O=C(Nc1ccccc1)Nc1cccc(C(=O)c2c[nH]c3ncc(-c4cccnc4)cc23)c1", "≤ 10000 nM"),
    ("CO[C@]1(c2cnc3[nH]cc(-c4cnn(C)c4)c3c2)CC[C@H](N2CCOCC2)CC1", "1480 nM"),
    ("CC(C)NC(=O)c1cc(-n2ncc3cc(Oc4ccccc4Cl)ncc32)cs1", "< 200 nM"),
    ("O=C(Cn1c(=O)ccc2nc(C(F)(F)F)ccc21)Nc1scc(Br)c1-c1ncn[nH]1", "< 100 nM"),
    ("Cc1nc2c(cnn2-c2csc(C(=O)NC3(C)COC3)c2)cc1Nc1ccccc1Cl", "200 to 1000 nM"),
    ("O=C(NC1CC1)c1cccc2c1C=Cc1cccc3[nH]nc-2c13", "≤ 300 nM"),
    ("N#CCc1cnc(-c2ccc3c(c2)OCO3)n1-c1ccnc(NC2CCCCC2)n1", "> 100 nM"),
    ("CCCN(CCO)[C@H]1CC[C@H](c2cnc3[nH]cc(-c4cnn(C)c4)c3c2)CC1", "263 nM"),
]
